B1: GAGE1 (parent)
chain: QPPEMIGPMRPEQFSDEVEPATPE

# Variants of: B1
# TEST DETAILS: protein stability index of a GFP-peptide fusion (GPS, HEK-293T) (PSI 1-6); higher = more stable;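 note: lentivirally expressed fusions sorted by FACS into six bins by GFP to DsRed ratio, PSI derived from sequencing read proportions per bin multiplied by bin number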
# ASSAY CONTEXT: c terminus: a fixed tail appended
REPORTED METRIC: protein stability index

{"MUTATION LABEL": "A21S", "protein stability index": 4.79}

Entry under test: P2R . Its protein stability index was 4.8

Entry S15K — recorded protein stability index = 5.72

Noted for E17V : its protein stability index reads 4.96

// protein stability index lookup, variant = E24Q , result: 4.61
